# experimentalTarget: T1, canine NGF tagged at the C-terminus with the Flag tag (canine, UniProt A0A8I3PYI3 122-241)
# T1 construct: mature; Expressed with baculovirus technology; also called feline NGF (processed form identical)
# T1 sequence (A0A8I3PYI3 entry or part of it): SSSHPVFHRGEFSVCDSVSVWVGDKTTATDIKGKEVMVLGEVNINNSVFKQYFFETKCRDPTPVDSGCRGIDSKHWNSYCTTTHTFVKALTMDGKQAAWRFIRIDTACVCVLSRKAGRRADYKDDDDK
# methodDescription: SPR off-rate screen, Fab-SASA on BSA chip
reportedMetric: kon (M⁻¹ s⁻¹)

# binder, valueReported
records = [
    ("felinized clone 101 Fab-SASA variant R24F (VL) (Fab, V domains shown, not shown: small tags and cut ends) VH: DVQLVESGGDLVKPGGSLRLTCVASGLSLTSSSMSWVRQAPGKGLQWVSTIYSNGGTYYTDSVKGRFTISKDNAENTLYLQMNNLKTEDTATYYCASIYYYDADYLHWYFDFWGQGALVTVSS VL: EIQMTQSPTSLSASVGDRVTITCFASEGISNNLSWYQQTPGKAPKLLIYATSNLHSGVPSRFSGSGSGTDFTLTISSLQPEDFATYYCQQGYKWPLTFGGGTKLEITR", 287000),
    ("felinized clone 101 Fab-SASA variant Y99F (VH) (Fab, V domains shown, not shown: small tags and cut ends) VH: DVQLVESGGDLVKPGGSLRLTCVASGLSLTSSSMSWVRQAPGKGLQWVSTIYSNGGTYYTDSVKGRFTISKDNAENTLYLQMNNLKTEDTATYYCASIFYYDADYLHWYFDFWGQGALVTVSS VL: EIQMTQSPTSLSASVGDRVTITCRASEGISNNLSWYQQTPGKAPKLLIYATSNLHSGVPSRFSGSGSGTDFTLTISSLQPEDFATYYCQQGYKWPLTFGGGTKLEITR", 321000),
    ("felinized clone 101 Fab-SASA variant Y101H (VH) (Fab, V domains shown, not shown: small tags and cut ends) VH: DVQLVESGGDLVKPGGSLRLTCVASGLSLTSSSMSWVRQAPGKGLQWVSTIYSNGGTYYTDSVKGRFTISKDNAENTLYLQMNNLKTEDTATYYCASIYYHDADYLHWYFDFWGQGALVTVSS VL: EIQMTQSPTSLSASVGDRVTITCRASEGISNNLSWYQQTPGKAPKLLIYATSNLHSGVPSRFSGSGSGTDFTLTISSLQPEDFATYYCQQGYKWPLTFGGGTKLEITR", 307000),
]

Where do these numbers come from? They come from patent US20250011410A1.
